src = patent EP0639197B1

Target: NMDA receptors
Assay: Inhibition of specific binding of [3H]CGS-19755 to rat forebrain membranes
Conditions: [3H]CGS-19755 4.62 x 10^-9 M; rat forebrain membranes; 20min, 23 C; enriched mixtures, less than about 95% pure
Property Label: IC50 (nM)
Number only, in nM; omit the unit.

- Molecule: "N[C@H](C[C@H]1CCCC[C@H]1CCP(=O)(O)O)C(=O)O (single isomer, unassigned) [cis isomer A]"
  Assayed Target: "NMDA receptors"
  IC50 (nM): 270

Please examine the following record next.
## Task Please look up its IC50: O=C(O)C1CN(CCCP(=O)(O)O)CCN1 (racemic) [(±) CPP, reference compound]
## Result 190
